Measured inhibition accompanies every entry in the list below.
- study target: Sterol O-acyltransferase 1 (Rattus norvegicus) (UniProt O70536)
- Sequence (O70536 whole entry): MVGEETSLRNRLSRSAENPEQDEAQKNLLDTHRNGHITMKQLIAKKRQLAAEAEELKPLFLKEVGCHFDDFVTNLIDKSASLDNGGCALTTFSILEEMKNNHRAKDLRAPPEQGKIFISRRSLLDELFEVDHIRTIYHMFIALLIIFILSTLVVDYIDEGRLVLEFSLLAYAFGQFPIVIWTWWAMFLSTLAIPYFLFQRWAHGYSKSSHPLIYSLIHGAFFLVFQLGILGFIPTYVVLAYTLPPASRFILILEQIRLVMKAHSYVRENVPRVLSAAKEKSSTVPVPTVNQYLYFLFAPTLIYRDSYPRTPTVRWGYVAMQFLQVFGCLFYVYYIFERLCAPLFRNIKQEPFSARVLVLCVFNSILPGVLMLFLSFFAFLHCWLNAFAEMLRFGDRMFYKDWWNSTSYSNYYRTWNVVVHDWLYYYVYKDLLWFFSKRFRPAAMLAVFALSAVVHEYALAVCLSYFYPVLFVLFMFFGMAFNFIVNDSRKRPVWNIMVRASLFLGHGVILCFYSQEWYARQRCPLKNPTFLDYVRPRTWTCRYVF
- test summary: In vitro inhibitory activity against acyl coenzyme A:cholesterol acyltransferase
- Set-up: concentration or dose not given beside the values
- settings: concentration not given here

Here are 3 compounds together with their reported answers.
{"columns": ["compound", "inhibition"],
 "data": [
  ["CCOC(=O)c1ccc(NCCCCCCCCCCC(F)(F)F)cc1", "< 24%"],
  ["CCOC(=O)c1ccc(NC(=O)CCCCCCCCCCCCCCCBr)cc1", "< 32%"],
  ["CCOC(=O)c1ccc(NC(=O)CCCCCCCCCCBr)cc1", "< 71%"]
]}

Entry under review: `COCCCCCCCCCCCCCCCCN(C(C)=O)c1ccc(C(=O)O)cc1` . Reported inhibition? < 22%

Entry under review: CCCCCCCCCCC(C)(O)CCCCCNc1ccc(C(=O)OCC)cc1 (centres undefined) . Reported inhibition? < 59%

Entry under review: CCCCCCCCCCC(C#N)CCCCCNc1ccc(C(=O)O)cc1 (centres undefined) . Reported inhibition? < 64%

Entry under review: `CC(C)(C)CCCCCCCCCCCCNc1ccc(C(=O)O)cc1` . Reported inhibition? < 59%

Entry under review: CCCCCCCCCCC(C)Nc1ccc(C(=O)O)cc1 (centres undefined) . Reported inhibition? < 51%

Entry under review: `CCOC(=O)c1ccc(NCCCCCCCCCCCCCCCCSCC)cc1` . Reported inhibition? < 10%

Entry under review: `CCSCCCCCCCCCCCCCCCCNc1ccc(C(=O)O)cc1` . Reported inhibition? < 36%
